Every entry's value here was drawn from ChEMBL document CHEMBL5500409.

- Tested on: HCCLM3
- Assay Summary: cells
- Recorded Conditions: Homo sapiens, HCCLM3, 72 h
- Description: Antiproliferative activity against human HCCLM3 cells assessed as inhibition of cell proliferation measured after 72 hrs by MTT assay
pIC50: −log10 of the molar value.
Assay Metric: pIC50

As a guide, the following entries are already answered.
INSERT INTO assay_data (structure_string, system_under_test, result_value) VALUES
  ('N#Cc1cccc(CN2CCC(c3nc(Cc4ccc(Br)c(F)c4)no3)CC2)c1', 'HCCLM3', 5.19),
  ('N#Cc1cccc(CN2CCC(c3nc(Cc4ccc(Cl)c(F)c4)no3)CC2)c1', 'HCCLM3', 5.12),
  ('N#Cc1cccc(CN2CCC(c3nc(Cc4ccccc4F)no3)CC2)c1', 'HCCLM3', 5.10),
  ('N#Cc1cccc(CN2CCC(c3nc(Cc4cc(F)c(F)c(F)c4)no3)CC2)c1', 'HCCLM3', 5.32),
  ('N#Cc1cccc(CN2CCC(c3nc(Cc4ccc(F)cc4)no3)CC2)c1', 'HCCLM3', 5.23),
  ('N#Cc1cccc(CN2CCC(c3nc(Cc4ccc(Cl)cc4)no3)CC2)c1', 'HCCLM3', 5.05);

P. N#Cc1cccc(CN2CCC(c3nc(Cc4ccc(F)c(Br)c4)no3)CC2)c1
Q. N#Cc1cccc(CN2CCC(c3nc(Cc4cccc(C(F)(F)F)c4)no3)CC2)c1
Kindly compare P with Q and tell me which has the lower pIC50 figure. Provide the label of your selected option as the answer.
Q
(Q: 5.14, P: 5.43)

I. N#Cc1cccc(CN2CCC(c3nc(Cc4ccc(F)c(F)c4)no3)CC2)c1
II. N#Cc1cccc(CN2CCC(c3nc(Cc4ccccc4)no3)CC2)c1
III. O=C(c1ccc(F)cc1)N1CCC[C@H](c2nc(-c3ccc(F)cc3)no2)C1
Task for the reader: rank each entry by its pIC50, from the minimum upward. A ranking is expressed here by listing the labels in the requested order.
III, II, I
(III: 4.18, II: 5.11, I: 5.43)

###

- Tested on: HCCLM3
- Assay Summary: cells
- Recorded Conditions: Homo sapiens, HCCLM3, 72 h, read-out: INH
- Description: Antiproliferative activity against human HCCLM3 cells assessed as inhibition of cell proliferation at 10 uM measured after 72 hrs by MTT assay relative to control
Assay Metric: inhibition at 10 µM (%)
// units = %; emit number, no label

Retrieve inhibition at 10 µM measured for `Fc1ccc(Cc2noc(C3CCN(Cc4cccnc4)CC3)n2)cc1Cl` and print it.
16.7

Give a short answer stating reported inhibition at 10 µM for `Fc1ccc(Cc2noc(C3CCN(Cc4ccc(C(F)(F)F)cc4)CC3)n2)cc1` .
18.8

Annotate the compound `N#Cc1cccc(CN2CCC(c3nc(Cc4ccc(F)cc4)no3)CC2)c1` with its measured inhibition at 10 µM.
77.5

Given the compound `N#Cc1cccc(CN2CCC(c3nc(Cc4ccc(F)cc4F)no3)CC2)c1` , write its reported inhibition at 10 µM.
36.4

Tell me inhibition at 10 µM reported for `N#Cc1cccc(C(=O)N2CCC(c3nc(Cc4ccc(F)cc4)no3)CC2)c1`
22.4

###

- System: HCCLM3
- Assay Summary: cells
- Recorded Conditions: Homo sapiens, HCCLM3, 72 h, read-out: INH
Assay Metric: inhibition at 10 µM (%)
Number only, in %; omit the unit.

Known results for molecules:
INSERT INTO measurements (structure_string, result_value) VALUES
  ('N#Cc1cccc(CC(=O)N2CCC(c3nc(Cc4ccc(F)cc4)no3)CC2)c1', 31.5),
  ('O=C(Cc1ccc(F)cc1)N1CC[C@H](c2nc(Cc3ccc(F)cc3)no2)C1', 5.8),
  ('N#Cc1cccc(CN2CCC(c3nc(Cc4cccc(F)c4F)no3)CC2)c1', 11.7),
  ('N#Cc1cccc(CN2CCC(c3nc(Cc4ccc(Cl)c(F)c4)no3)CC2)c1', 71.1);

Please look at the following molecule next.
Given the molecule `O=C(NCCc1nc(Cc2ccc(F)cc2)no1)c1ccc(F)cc1` , write its reported inhibition at 10 µM.
24.3

###

- System Under Test: ATP-dependent Clp protease proteolytic subunit, mitochondrial (Homo sapiens)
- Sequence (Q16740 whole entry): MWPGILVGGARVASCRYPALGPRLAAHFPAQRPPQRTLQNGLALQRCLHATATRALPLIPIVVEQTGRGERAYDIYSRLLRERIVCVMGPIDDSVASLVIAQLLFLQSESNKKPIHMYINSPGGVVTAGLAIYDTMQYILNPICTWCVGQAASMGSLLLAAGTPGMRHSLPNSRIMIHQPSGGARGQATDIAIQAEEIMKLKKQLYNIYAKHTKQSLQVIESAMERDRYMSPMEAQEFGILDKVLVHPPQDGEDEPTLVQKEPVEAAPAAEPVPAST
- Assay Summary: Agonist activity at N-terminal SUMO tagged human ClpP transfected in Escherichia coli assessed as induction of alpha-casein degradation preincubated for 10 mins followed by alpha-casein addition and measured after 2 hrs by brilliant blue staining based SDS-PAGE analysis
Assay Metric: EC50 (µM)
Numbers only; they are read as µM.

Enter EC50 (test system ATP-dependent Clp protease proteolytic subunit, mitochondrial (Homo sapiens)) for `O=C(c1ccc(F)cc1)N1CCC[C@H](c2nc(-c3ccc(F)cc3)no2)C1`
29.7

###

- Tested on: HCCLM3
- Assay Summary: cells
- Recorded Conditions: Homo sapiens, HCCLM3, 72 h, read-out: INH
Each record here notes measured inhibition at 10 µM.
Respond with the bare value in %.

INSERT INTO measurements (structure_string, system_under_test, result_value) VALUES
  ('N#Cc1cccc(CN2CCC(c3nc(Cc4cc(F)ccc4F)no3)CC2)c1', 'HCCLM3', 12.2);

Indicate the recorded inhibition at 10 µM value for this compound: `N#Cc1cccc(C(=O)NCCc2nc(Cc3ccc(F)cc3)no2)c1`
16.1

Provide measured inhibition at 10 µM value, entry: `O=C(NCCc1nc(Cc2ccc(F)cc2)no1)c1ccc(C(F)(F)F)cc1`
15.5

// fetch inhibition at 10 µM given entry `N#Cc1cccc(CN2CCC(c3nc(Cc4ccc(Br)cc4)no3)CC2)c1`
70

Given `N#Cc1cccc(CN2CCC(c3nc(Cc4ccc(Cl)cc4F)no3)CC2)c1` , respond with its inhibition at 10 µM.
55.9

###

- System Under Test: ATP-dependent Clp protease proteolytic subunit, mitochondrial (Homo sapiens)
- Assay Summary: Agonist activity at human ClpP using Ac-WLA-AMC as substrate assessed as induction of substrate degradation
Assay Metric: pEC50
Keep it numeric: pEC50 is minus log10 of the concentration in mol/L.

Name the recorded pEC50 of `O=C(c1ccc(F)cc1)N1CCC[C@H](c2nc(-c3ccc(F)cc3)no2)C1` , assay system ATP-dependent Clp protease proteolytic subunit, mitochondrial (Homo sapiens).
5.92

###

- System: HCCLM3
- Assay Summary: cells
- Recorded Conditions: Homo sapiens, HCCLM3, 72 h
Assay Metric: IC50 (µM)

Use these answered entries as a reference point.
INSERT INTO assay_data (structure_string, result_value) VALUES
  ('N#Cc1cccc(CN2CCC(c3nc(Cc4ccc(C(F)(F)F)cc4)no3)CC2)c1', 9.2),
  ('N#Cc1cccc(CN2CCC(c3nc(Cc4cccc(F)c4)no3)CC2)c1', 9.8),
  ('N#Cc1cccc(CN2CCC(c3nc(Cc4ccc(Br)cc4)no3)CC2)c1', 6.7);

A. N#Cc1cccc(CN2CCC(c3nc(Cc4ccc(Cl)cc4F)no3)CC2)c1
B. CNC(=O)c1cc(Oc2ccc(NC(=O)Nc3ccc(Cl)c(C(F)(F)F)c3)cc2)ccn1
Which has the smaller recorded IC50, A or B ? When you have decided, please share the label of that item.
B
(B: 6.3 µM, A: 9.3 µM)

###

- System: HCCLM3
- Assay Summary: cells
- Recorded Conditions: Homo sapiens, HCCLM3, 72 h, read-out: INH
Assay Metric: inhibition at 10 µM (%)
Quick note: give the figure in %, leave out the unit.

Record excerpt, results attached:
INSERT INTO assay_data (structure_string, result_value) VALUES
  ('O=C(Cc1ccc(F)cc1)N1CC(c2nc(Cc3ccc(F)cc3)no2)C1', 11.5),
  ('O=C(Cc1ccc(F)cc1)N1CCC[C@H](c2nc(Cc3ccc(F)cc3)no2)C1', 5.3),
  ('N#Cc1cccc(CN2CCC(c3nc(Cc4ccc(F)c(F)c4)no3)CC2)c1', 88.3),
  ('Cc1ccc(Cc2noc(C3CCN(Cc4cccc(C#N)c4)CC3)n2)cc1', 20.6),
  ('N#Cc1cccc(CN2CCC[C@@H]2c2nc(Cc3ccc(F)cc3)no2)c1', 38.8);

Now consider the entry below.
// fetch inhibition at 10 µM; item: `O=C(Cc1ccc(F)cc1)N1CCC[C@@H](c2nc(-c3ccc(F)cc3)no2)C1` ; system: HCCLM3
18.3

###

Attribute: inhibition at 10 µM
- Test system: HCCLM3
- Assay Summary: cells
- Recorded Conditions: Homo sapiens, HCCLM3, 72 h, read-out: INH
Lab book: enter the figure in %, no units written.

Below, each entry is followed by its recorded inhibition at 10 µM result.
INSERT INTO results (structure_string, units_text, result_value) VALUES
  ('N#Cc1cccc(CN2CCC(c3nc(-c4ccc(C(F)(F)F)cc4)no3)CC2)c1', '%', 19.5),
  ('N#Cc1cccc(CN2CCC(c3nc(-c4cccc(C(F)(F)F)c4)no3)CC2)c1', '%', 30.3),
  ('Fc1ccc(CN2CCC[C@@H](c3nc(-c4ccc(F)cc4)no3)C2)cc1', '%', 11),
  ('N#Cc1cccc(CN2CCC(c3nc(Cc4ccc(F)c(Br)c4)no3)CC2)c1', '%', 83.2),
  ('N#Cc1cccc(CN2CCC(c3nc(Cc4cccc(F)c4)no3)CC2)c1', '%', 50.4),
  ('N#Cc1cccc(CN2CCC(c3nc(Cc4ccc(C(F)(F)F)cc4)no3)CC2)c1', '%', 56.4),
  ('Fc1ccc(Cc2noc(C3CCN(Cc4ccccn4)CC3)n2)cc1Cl', '%', 11.1),
  ('N#Cc1cccc(CN2CCC(c3nc(Cc4cc(F)cc(F)c4)no3)CC2)c1', '%', 46.4);

Return inhibition at 10 µM for the following compound: `O=C(c1ccc(F)cc1)N1CC[C@H](c2nc(Cc3ccc(F)cc3)no2)C1`
6

Quote inhibition at 10 µM reported for `N#Cc1cccc(CN2CCC(c3nc(Cc4ccccc4)no3)CC2)c1` please.
64.5

Please give the documented inhibition at 10 µM of `N#Cc1cccc(CN2CCC(c3nc(Cc4ccc(Br)cc4F)no3)CC2)c1`
23.7

Quickly give me recorded inhibition at 10 µM for `N#Cc1cccc(CN2CCC(c3nc(Cc4cc(F)c(F)c(F)c4)no3)CC2)c1`
80.9

Let me know recorded inhibition at 10 µM for `N#Cc1cccc(CN2CCC(c3nc(Cc4ccc(Cl)cc4)no3)CC2)c1` , thanks.
61.5

Specify measured inhibition at 10 µM for `O=C(c1ccc(F)cc1)N1CCC(c2nc(Cc3ccc(F)cc3)no2)CC1` .
22.1

Give the reported inhibition at 10 µM for this compound. `N#Cc1cccc(CN2CCC(c3nc(Cc4ccc(F)cc4Cl)no3)CC2)c1`
10.4

Retrieve inhibition at 10 µM measured for `O=C(c1ccc(F)cc1)N1CCC[C@H](c2nc(Cc3ccc(F)cc3)no2)C1` and print it.
9.3

Read the entry `N#Cc1cccc(CN2CCC(c3nc(Cc4c(F)c(F)c(F)c(F)c4F)no3)CC2)c1` and write its reported inhibition at 10 µM.
12.8

Fill in inhibition at 10 µM for record `N#Cc1cccc(CN2CCC(c3nc(Cc4ccccc4F)no3)CC2)c1`
68.9

Output inhibition at 10 µM of `N#Cc1cccc(CN2CC(c3nc(Cc4ccc(F)cc4)no3)C2)c1`
5.9

Retrieve inhibition at 10 µM measured for `Fc1ccc(Cc2noc([C@H]3CCCN3Cc3ccc(C(F)(F)F)cc3)n2)cc1` and print it.
13.3

For the compound `N#Cc1cccc(CN2CCC(c3nc(Cc4ccc(F)cc4Br)no3)CC2)c1` , give its reported inhibition at 10 µM.
12.7

Let me know recorded inhibition at 10 µM for `O=S(=O)(NCCc1nc(Cc2ccc(F)cc2)no1)c1ccc(F)cc1` , thanks.
13.2

Read off the recorded inhibition at 10 µM for `Fc1ccc(Cc2noc([C@H]3CCCN(Cc4ccc(F)cc4)C3)n2)cc1`
22.5

Identify the reported inhibition at 10 µM for the following entry. `O=C(c1ccc(F)cc1)N1CCC[C@@H](c2nc(-c3ccc(F)cc3)no2)C1`
17.8
